Test system: T1, serum resistance-associated protein (SRA) from Trypanosoma brucei rhodesiense, recombinant SRA (SEQ ID NO: … (Trypanosoma brucei rhodesiense, UniProt O96637 31-274))
T1 construct: also called SRA protein
T1 sequence: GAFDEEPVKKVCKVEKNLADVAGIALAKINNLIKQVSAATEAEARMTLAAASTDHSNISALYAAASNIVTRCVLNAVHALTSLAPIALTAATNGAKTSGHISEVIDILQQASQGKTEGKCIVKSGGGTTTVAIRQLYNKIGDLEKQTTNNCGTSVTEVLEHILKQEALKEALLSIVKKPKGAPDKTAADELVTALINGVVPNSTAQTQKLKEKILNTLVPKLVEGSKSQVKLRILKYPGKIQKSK
Assay explanation: SPR, mAb captured, 25C, pH 7.4
pKd: −log10 of the molar value.
Measured quantity: pKd

| Binder | Measured quantity | Relation | Recorded value |
| --- | --- | --- | --- |
| H2aM10200N (antibody, V domains shown, Hybridoma-derived chimeric antibody, human variable domains and mouse constant domains (mouse Fc, prefix H2aM); also called H2M10200N) VH: QVQLVQSGAEVKKPGSSVKVSCKASGGTFSSYAISWVRQAPGQGLEWMGGIIPFFGTATYAQKFQGRVTITTDESTRTVYMELSSLRYEDTAVYYCARWYSGYGGDFDYWGQGTLVTVSS VL: AIQMTQSPSSLSASVGDRVTITCRASQGIRNDLGWFQQKPGKAPKLLIYAASSLQSGVPSRFSGSGSGTDFTLSISSLQPEDFATYYCLQDYSYPRTFGQGTKVEIK | pKd | = | 10.00 |
| H1H10026P (antibody, V domains shown, Fully human antibody with human IgG1 Fc (prefix H1H)) VH: QVQLVESGGGVVQPGRSLRLSCEASGFTFSIYGMHWVRQAPGKGLEWVAVISYDGTNRYYADSVKGRFTISRDNSKNTLYLQMNSLRAEDTAVYYCAKVNIWNFLFDYWGQGTLVTVSS VL: EIVLTQSPGTLSLSPGERATLSCRASQSVSGNYLAWYQQKPGQAPRLLIYGPSSRATGIPDRFSGSGSGTDFTLTISRLEPEDFAVYYCQQYGTSLTFGGGTKVEIK | pKd | ≥ | 10.09 |
| H1H10061P (antibody, V domains shown, Fully human antibody with human IgG1 Fc (prefix H1H)) VH: QVQLVESGGGVVQPGNSLRLSCAASGFTFSAYGMHWVRQAPGKGLEWVAVISYDGSNEFYADSVKGRFTIFRDNSKNMLYLQMNSLRVEDTSIYYCAKDRGLGVYYFFYGMDVWGQGTTVTVSS VL: DIVMTQSPDSLVVSLGERATINCKSSQSLLYSSSNNNYLTWYQQKPGRPPKLLIYWASTRESGVPDRFSGSGSGTDFTLTISSLQAEDVAIYYCQQNYITPLTFGGGTKVEIK | pKd | ≥ | 10.51 |
| H1H10059P (antibody, V domains shown, Fully human antibody with human IgG1 Fc (prefix H1H)) VH: QVQLVQSGAEVKKPGASVKVSCKAAGFTFIGYYIHWVRQAPGQGLEWMGWINSNSGDKDSAPKFQDRVTMTRDTSISTAYMELSRLRSDDTAVYFCAREGYNFGHFDYWGQGTLVTVSS VL: DIVMTQTPLSSPVTLGQPASISCRSSQSLVHSDGNTYLSWLQQRPGQPPRLLIYKISNRLSGVPDRFSGSGAGTDFTLKISRVEGEDVGVYYCMQGTQFPRTFGQGTKVEIK | pKd | ≥ | 10.50 |
| H1H10064P (antibody, V domains shown, Fully human antibody with human IgG1 Fc (prefix H1H)) VH: QVQLVQSGAEVKKPGSSVKVSCKASGGSFSSNVFSWVRQAPGQGLEWMGGIIPIFGSANYAQKFQGRVTITTDESTTTAYMELSSLRSEDTAVYYCAIGGTGPSGYNWNYGAFYIWGQGTMVTVSS VL: DIQMTQSPSSLSASVGDRVTITCRASQGIRNDLGWYQQKPGIAPKRLIYAASSLQSGVPSRFSGSGSGTEFTLTISSLQPEDFATYYCLQHNSYPYTFGQGTKLEIK | pKd | = | 9.26 |

Values from patent US20150376269A1
